TARGET_UNDER_TEST: PI3-kinase p110-alpha/p85-alpha (Homo sapiens)
ASSAY_REMARKS: Inhibition of […]/p85 PI3-kinase (phosphatidylinositol 3-kinase)
Each entry below carries its reported IC50.
Report the figure in µM without appending any unit label.

# MOLECULE, TARGET_UNDER_TEST, PROPERTY, TEST_VALUE
rows = [
    ("CCCCCCCCCCCCCCCCCCOC[C@H](COC(=O)OC1[C@@H](O)[C@@H](O)[C@H](O)[C@H](CO)[C@@H]1O)n1ccnc1 (single isomer, unassigned)", "PI3-kinase p110-alpha/p85-alpha (Homo sapiens)", "IC50", 49.5),
    ("CCCCCCCCCCCCCCCCCCOC[C@H](COP(=O)(O)OC1[C@@H](O)[C@@H](O)[C@H](O)[C@H](CO)[C@H]1O)n1ccnc1 (single isomer, unassigned)", "PI3-kinase p110-alpha/p85-alpha (Homo sapiens)", "IC50", 7.9),
]

Turning now to a further record.
Which IC50 is reported with PI3-kinase p110-alpha/p85-alpha (Homo sapiens) for this entry: CCCCCCCCCCCCCCCCCCOC[C@H](COP(=O)(O)OC1[C@H](O)C[C@@H](O)[C@H](O)[C@@H]1O)OC (single isomer, unassigned) ?
14.8

---

Measured pIC50 by item
TARGET_UNDER_TEST: PI3-kinase p110-alpha/p85-alpha (Homo sapiens, UniProt P42336)
Sequence (P27986 whole entry): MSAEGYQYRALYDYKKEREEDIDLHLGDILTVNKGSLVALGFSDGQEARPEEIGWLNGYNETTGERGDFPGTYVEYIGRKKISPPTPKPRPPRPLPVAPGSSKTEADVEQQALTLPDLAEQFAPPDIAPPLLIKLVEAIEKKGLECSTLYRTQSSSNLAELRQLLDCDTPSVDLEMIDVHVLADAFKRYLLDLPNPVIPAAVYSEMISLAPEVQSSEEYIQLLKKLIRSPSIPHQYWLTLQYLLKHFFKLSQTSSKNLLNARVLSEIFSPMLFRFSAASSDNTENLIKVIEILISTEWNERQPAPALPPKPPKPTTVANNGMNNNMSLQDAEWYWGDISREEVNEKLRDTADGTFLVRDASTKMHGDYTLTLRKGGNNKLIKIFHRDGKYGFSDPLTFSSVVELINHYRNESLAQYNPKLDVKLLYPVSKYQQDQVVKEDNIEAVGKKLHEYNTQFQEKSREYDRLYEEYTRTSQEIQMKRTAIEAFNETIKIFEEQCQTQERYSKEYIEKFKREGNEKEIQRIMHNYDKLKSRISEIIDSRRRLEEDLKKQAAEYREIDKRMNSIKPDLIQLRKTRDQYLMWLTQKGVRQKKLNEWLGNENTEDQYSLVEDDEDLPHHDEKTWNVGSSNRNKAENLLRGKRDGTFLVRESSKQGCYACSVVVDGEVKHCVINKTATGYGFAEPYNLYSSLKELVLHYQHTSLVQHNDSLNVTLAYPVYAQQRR
Sequence (P42336 whole entry): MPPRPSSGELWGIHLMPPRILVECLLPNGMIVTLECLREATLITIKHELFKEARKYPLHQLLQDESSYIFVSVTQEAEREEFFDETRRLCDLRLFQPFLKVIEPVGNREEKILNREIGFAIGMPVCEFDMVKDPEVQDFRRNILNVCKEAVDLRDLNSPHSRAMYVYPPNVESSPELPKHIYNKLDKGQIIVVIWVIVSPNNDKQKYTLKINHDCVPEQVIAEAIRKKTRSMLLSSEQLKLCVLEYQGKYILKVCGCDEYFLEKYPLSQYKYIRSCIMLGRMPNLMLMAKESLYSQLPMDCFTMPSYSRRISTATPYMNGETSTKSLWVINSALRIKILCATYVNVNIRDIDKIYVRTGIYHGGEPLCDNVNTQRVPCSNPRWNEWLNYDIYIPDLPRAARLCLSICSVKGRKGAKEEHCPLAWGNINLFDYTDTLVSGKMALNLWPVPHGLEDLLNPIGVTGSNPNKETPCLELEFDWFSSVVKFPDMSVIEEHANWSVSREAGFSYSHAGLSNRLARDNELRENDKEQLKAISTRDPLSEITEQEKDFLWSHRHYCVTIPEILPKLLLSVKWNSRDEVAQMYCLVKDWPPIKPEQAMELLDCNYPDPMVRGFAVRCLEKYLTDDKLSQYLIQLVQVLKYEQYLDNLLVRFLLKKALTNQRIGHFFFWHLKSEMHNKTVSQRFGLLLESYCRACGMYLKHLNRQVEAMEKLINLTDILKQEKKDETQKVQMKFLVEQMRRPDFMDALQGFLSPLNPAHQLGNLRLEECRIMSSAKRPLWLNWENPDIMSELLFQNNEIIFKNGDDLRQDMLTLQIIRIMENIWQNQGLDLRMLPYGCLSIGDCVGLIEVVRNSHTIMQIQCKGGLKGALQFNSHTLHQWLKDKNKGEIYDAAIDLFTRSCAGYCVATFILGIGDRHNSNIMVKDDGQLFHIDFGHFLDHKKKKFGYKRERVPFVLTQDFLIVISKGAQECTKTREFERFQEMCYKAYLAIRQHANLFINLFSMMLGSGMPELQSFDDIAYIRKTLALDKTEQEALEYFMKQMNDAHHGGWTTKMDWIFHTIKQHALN
ASSAY_REMARKS: Inhibition of […]/p85 PI3-kinase (phosphatidylinositol 3-kinase)
Lab note: report pIC50 as minus log10 of the concentration in molar units, number only.

# COMPOUND, TARGET_UNDER_TEST, PROPERTY, TEST_VALUE
rows = [
    ("CCCCCCCCCCCCCCCCCCOC[C@H](COC(=O)OC1[C@@H](O)[C@@H](O)[C@H](O)[C@H](CO)[C@H]1O)OC (single isomer, unassigned)", "PI3-kinase p110-alpha/p85-alpha (Homo sapiens, UniProt P42336)", "pIC50", 4.08),
    ("CCCCCCCCCCCCCCCCCCOC[C@H](COP(=O)(O)OC1[C@H](O)C[C@@H](O)[C@H](O)[C@@H]1O)n1ccnc1 (single isomer, unassigned)", "PI3-kinase p110-alpha/p85-alpha (Homo sapiens, UniProt P42336)", "pIC50", 4.84),
]

Next compound, pIC50 to be filled in.
Quick one: pIC50 of CCCCCCCCCCCCCCCCCCOC[C@H](COP(=O)(O)OC1[C@@H](O)[C@@H](O)[C@H](O)[C@H](CO)[C@H]1O)OC (single isomer, unassigned) ?
4.51
